ASSAYED_TARGET: PI3Kβ (Homo sapiens (Human), UniProt P42338)
Sequence (P42338 whole entry): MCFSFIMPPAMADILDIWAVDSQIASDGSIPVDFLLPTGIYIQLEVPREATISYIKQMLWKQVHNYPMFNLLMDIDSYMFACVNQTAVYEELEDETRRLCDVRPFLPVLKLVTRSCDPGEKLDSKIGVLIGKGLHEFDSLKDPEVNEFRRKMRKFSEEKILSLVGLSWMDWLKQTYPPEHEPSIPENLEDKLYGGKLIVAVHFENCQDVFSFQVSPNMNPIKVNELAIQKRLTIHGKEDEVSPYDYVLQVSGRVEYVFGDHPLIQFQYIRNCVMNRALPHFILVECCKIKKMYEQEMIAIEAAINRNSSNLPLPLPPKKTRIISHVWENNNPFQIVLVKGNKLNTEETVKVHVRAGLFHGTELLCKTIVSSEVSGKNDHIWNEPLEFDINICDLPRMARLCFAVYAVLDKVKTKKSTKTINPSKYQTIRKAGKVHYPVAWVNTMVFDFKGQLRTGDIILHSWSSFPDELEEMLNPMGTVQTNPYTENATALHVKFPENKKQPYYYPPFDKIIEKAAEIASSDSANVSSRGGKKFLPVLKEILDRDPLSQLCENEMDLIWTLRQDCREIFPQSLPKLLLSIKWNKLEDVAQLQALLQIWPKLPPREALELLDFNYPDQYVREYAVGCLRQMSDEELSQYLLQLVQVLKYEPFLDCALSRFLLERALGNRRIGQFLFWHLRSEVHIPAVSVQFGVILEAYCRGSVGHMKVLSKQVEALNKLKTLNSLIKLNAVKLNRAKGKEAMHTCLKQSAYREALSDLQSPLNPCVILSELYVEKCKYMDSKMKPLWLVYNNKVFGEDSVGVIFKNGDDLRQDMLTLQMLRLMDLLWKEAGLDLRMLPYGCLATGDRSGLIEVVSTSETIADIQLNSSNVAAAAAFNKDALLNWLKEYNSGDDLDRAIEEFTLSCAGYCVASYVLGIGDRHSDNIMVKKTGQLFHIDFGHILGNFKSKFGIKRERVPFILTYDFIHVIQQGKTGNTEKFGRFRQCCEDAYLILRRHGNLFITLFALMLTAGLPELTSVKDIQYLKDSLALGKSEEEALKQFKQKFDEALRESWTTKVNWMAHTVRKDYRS
Sequence (P27986 whole entry partner): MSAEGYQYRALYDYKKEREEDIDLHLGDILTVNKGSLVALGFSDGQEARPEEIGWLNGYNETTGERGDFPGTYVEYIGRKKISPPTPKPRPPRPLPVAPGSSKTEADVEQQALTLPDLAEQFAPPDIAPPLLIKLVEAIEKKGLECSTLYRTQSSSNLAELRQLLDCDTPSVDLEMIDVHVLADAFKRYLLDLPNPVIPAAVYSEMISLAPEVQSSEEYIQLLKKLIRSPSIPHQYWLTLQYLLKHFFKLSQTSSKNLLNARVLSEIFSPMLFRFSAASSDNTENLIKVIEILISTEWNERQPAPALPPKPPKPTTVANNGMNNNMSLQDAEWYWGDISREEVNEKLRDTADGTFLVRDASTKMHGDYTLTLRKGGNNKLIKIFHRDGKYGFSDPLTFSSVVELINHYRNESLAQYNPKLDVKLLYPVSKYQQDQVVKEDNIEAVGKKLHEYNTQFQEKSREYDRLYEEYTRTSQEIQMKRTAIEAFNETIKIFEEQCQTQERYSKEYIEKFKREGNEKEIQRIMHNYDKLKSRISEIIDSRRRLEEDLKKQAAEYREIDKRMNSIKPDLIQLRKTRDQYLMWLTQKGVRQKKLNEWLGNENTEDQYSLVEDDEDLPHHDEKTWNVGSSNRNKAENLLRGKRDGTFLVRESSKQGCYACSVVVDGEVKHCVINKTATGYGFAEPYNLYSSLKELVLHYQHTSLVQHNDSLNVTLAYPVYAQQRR
PROTOCOL_NOTES: PI3Kβ enzyme activity inhibition IC50 evaluation assay
Type: biochemical
CONDITION_DESCRIPTION: ratio PI3Kβ vs PI3Kδ
I would appreciate it if you labelled entries yes when β/δ selectivity is 30 or higher, otherwise no.

input: Does the compound COc1ncc(-c2nc(N3CCOCC3)nc3c(OC4CCC(N5CCCCC5)CC4)c(C)sc23)cc1NS(C)(=O)=O (stereo not shown) [Compound 153] have recorded β/δ selectivity that is 30 or more?
output: yes

input: Follow-up item: COc1ncc(-c2nc(N3CCOCC3)nc3c(CN4CCC(C(C)(C)F)CC4)c(C)sc23)cc1NS(C)(=O)=O [Compound 85]
output: yes

// provenance: patent US9745321B2
